The following are reported IC50 results, target or system Pim-1 (Homo sapiens, UniProt P11309).
Note: unit µM is implicit; provide only the numeric part.

smilesRepresentation | IC50 [µM]
c1cc2cc3c(-c4cc[nH]n4)c[nH]c3cc2cn1 | 0.222

Proceeding to the next compound to report its IC50.
For `COC(=O)/C=C/c1c[nH]c2cc3cnccc3cc12` on Pim-1 (Homo sapiens, UniProt P11309), measured IC50 was 0.404

###

# testedOn: CDK5/p25 (Homo sapiens)
# Construct: made in house; host or cells: bacteria
# Sequence (Q00535 whole entry): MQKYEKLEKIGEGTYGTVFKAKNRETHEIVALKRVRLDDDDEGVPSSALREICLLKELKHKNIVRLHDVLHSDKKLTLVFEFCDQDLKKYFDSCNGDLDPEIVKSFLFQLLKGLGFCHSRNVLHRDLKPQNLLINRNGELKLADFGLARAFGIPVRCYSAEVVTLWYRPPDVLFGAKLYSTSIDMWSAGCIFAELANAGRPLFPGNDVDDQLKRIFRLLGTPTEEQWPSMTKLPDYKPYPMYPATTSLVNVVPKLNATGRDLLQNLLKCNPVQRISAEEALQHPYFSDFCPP
# Sequence (Q15078 99-307 partner limits assumed): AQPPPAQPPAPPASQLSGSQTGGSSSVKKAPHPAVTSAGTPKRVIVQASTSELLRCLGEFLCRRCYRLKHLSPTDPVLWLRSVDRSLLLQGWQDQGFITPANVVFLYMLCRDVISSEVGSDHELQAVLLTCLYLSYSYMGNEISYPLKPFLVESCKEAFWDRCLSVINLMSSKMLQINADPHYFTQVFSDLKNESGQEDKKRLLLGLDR
# testMethodNotes: ADP-Glo in vitro kinase inhibition assay, CDK5/p25
# Format: biochemical
# protocolConditions: 1 μM compound, 10 μM ATP; read-out: CDK5 % residual activity
reportedProperty: remaining activity at 1 µM (%)
Note: unit % is implicit; provide only the numeric part.

molecule | valueObserved
Clc1cc(-c2c[nH]c3cc4cnccc4cc23)ccn1 [Compound 2] | 100
c1c[nH]c(-c2c[nH]c3cc4cnccc4cc23)c1 [Compound 17] | 75
COC(=O)/C=C/c1c[nH]c2cc3cnccc3cc12 [Compound 8] | 72

Proceeding to the next molecule to report its remaining activity at 1 µM.
For COC(=O)CCc1c[nH]c2cc3cnccc3cc12 [Compound 10] on CDK5/p25 (Homo sapiens), measured remaining activity at 1 µM was 100

###

# testedOn: HsGSK3β (Homo sapiens, UniProt P49841)
# Construct: made in house; host or cells: Sf9 insect cells (baculovirus)
# Sequence (P49841 whole entry): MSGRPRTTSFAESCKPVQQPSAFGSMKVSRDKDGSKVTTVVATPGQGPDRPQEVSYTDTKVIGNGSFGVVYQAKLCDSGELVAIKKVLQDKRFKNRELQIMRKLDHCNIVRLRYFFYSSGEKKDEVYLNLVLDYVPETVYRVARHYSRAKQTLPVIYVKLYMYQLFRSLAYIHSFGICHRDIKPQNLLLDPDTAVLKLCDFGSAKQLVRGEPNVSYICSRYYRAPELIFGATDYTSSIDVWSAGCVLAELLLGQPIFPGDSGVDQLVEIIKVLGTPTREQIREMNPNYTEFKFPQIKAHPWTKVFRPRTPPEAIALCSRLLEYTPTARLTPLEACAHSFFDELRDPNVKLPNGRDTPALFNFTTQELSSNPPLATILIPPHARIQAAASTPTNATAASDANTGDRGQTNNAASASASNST
# testMethodNotes: ADP-Glo in vitro kinase inhibition assay, GSK3β
# Type: biochemical
# protocolConditions: 10 μM compound, 10 μM ATP; read-out: GSK3 % residual activity
Rule: remaining activity at 10 µM below 80% gives TRUE. Equal to or above 80% gives FALSE.

Completed entries (count: 6):
smilesRepresentation | answerLabel
c1cc2cc3c(-c4cc[nH]n4)c[nH]c3cc2cn1 | FALSE
COC(=O)CCc1c[nH]c2cc3cnccc3cc12 | FALSE
Nc1ccc(-c2c[nH]c3cc4cnccc4cc23)cn1 | TRUE
COC(=O)/C=C/c1c[nH]c2cc3cnccc3cc12 | TRUE
c1cc2cc3c(-c4cn[nH]c4)c[nH]c3cc2cn1 | TRUE
c1c[nH]c(-c2c[nH]c3cc4cnccc4cc23)c1 | TRUE

# next molecule below
Q: Is the reported remaining activity at 10 µM for `CC(C)(C)OC(=O)CCc1c[nH]c2cc3cnccc3cc12` strictly below 80%?
A: FALSE

###

Here, each record is paired with measured remaining activity at 10 µM data.
# testedOn: RnDYRK1A-kd (Rattus norvegicus)
# Construct: Rattus norvegicus, amino acids 1–499, pGEX-2TK; made in house; host or cells: bacteria
# testMethodNotes: ADP-Glo in vitro kinase inhibition assay, DYRK1A
# Assay type: biochemical
# protocolConditions: 10 μM compound, 10 μM ATP; read-out: DYRK1A % residual activity
# Experimental: We previouly reported that substitution at the 3-position with halogen atoms or pyridinyl or formyl groups was compatible with high potency toward Haspin kinase. […] The percentage of residual kinase activity was evaluated at 10 μM and 1 μM compound concentrations. […]
Number first, unit second: that is the form wanted.

smilesRepresentation | remaining activity at 10 µM
Nc1ccc(-c2c[nH]c3cc4cnccc4cc23)cn1 | 0%
c1c[nH]c(-c2c[nH]c3cc4cnccc4cc23)c1 | 19%
Clc1cc(-c2c[nH]c3cc4cnccc4cc23)ccn1 | 16%

Proceeding to the next compound to report its remaining activity at 10 µM.
For `CC(C)(C)OC(=O)/C=C/c1c[nH]c2cc3cnccc3cc12` on RnDYRK1A-kd (Rattus norvegicus), measured remaining activity at 10 µM was 28%

###

Here, each record is paired with measured remaining activity at 1 µM data.
# testedOn: RnDYRK1A-kd (Rattus norvegicus, UniProt Q63470)
# Construct: Rattus norvegicus, amino acids 1–499, pGEX-2TK; made in house; host or cells: bacteria
# testMethodNotes: ADP-Glo in vitro kinase inhibition assay, DYRK1A
# Type: biochemical
# protocolConditions: 1 μM compound, 10 μM ATP; read-out: DYRK1A % residual activity
Note: unit % is implicit; provide only the numeric part.

Some entries whose results are on file:
smilesRepresentation | reportedProperty | unitOfMeasurement | valueObserved
CC(C)(C)OC(=O)CCc1c[nH]c2cc3cnccc3cc12 | remaining activity at 1 µM | % | 58
CC(C)(C)OC(=O)/C=C/c1c[nH]c2cc3cnccc3cc12 | remaining activity at 1 µM | % | 51
c1cc2cc3c(-c4cc[nH]n4)c[nH]c3cc2cn1 | remaining activity at 1 µM | % | 39

Proceeding to the next compound to report its remaining activity at 1 µM.
Record `c1cc2cc3c(-c4cn[nH]c4)c[nH]c3cc2cn1` . Reported remaining activity at 1 µM: 11

###

# testedOn: HsGSK3β (Homo sapiens, UniProt P49841)
# Construct: made in house; host or cells: Sf9 insect cells (baculovirus)
# testMethodNotes: ADP-Glo in vitro kinase inhibition assay, GSK3β
# Type: biochemical
# protocolConditions: 1 μM compound, 10 μM ATP; read-out: GSK3 % residual activity
reportedProperty: remaining activity at 1 µM (%)
Note: unit % is implicit; provide only the numeric part.

smilesRepresentation | testedOn | remaining activity at 1 µM (%)
CC(C)(C)OC(=O)CCc1c[nH]c2cc3cnccc3cc12 | HsGSK3β (Homo sapiens, UniProt P49841) | 83
Nc1ccc(-c2c[nH]c3cc4cnccc4cc23)cn1 | HsGSK3β (Homo sapiens, UniProt P49841) | 80
Clc1cc(-c2c[nH]c3cc4cnccc4cc23)ccn1 | HsGSK3β (Homo sapiens, UniProt P49841) | 76
COC(=O)/C=C/c1c[nH]c2cc3cnccc3cc12 | HsGSK3β (Homo sapiens, UniProt P49841) | 78
c1cc2cc3c(-c4cn[nH]c4)c[nH]c3cc2cn1 | HsGSK3β (Homo sapiens, UniProt P49841) | 94
c1c[nH]c(-c2c[nH]c3cc4cnccc4cc23)c1 | HsGSK3β (Homo sapiens, UniProt P49841) | 71
CC(C)(C)OC(=O)/C=C/c1c[nH]c2cc3cnccc3cc12 | HsGSK3β (Homo sapiens, UniProt P49841) | 80

Proceeding to the next compound to report its remaining activity at 1 µM.
Record `c1cc2cc3c(-c4cc[nH]n4)c[nH]c3cc2cn1` . Reported remaining activity at 1 µM: 100

###

# testedOn: HsCK1ε (Homo sapiens, UniProt P49674)
# Construct: made in house; host or cells: Sf9 insect cells
# Sequence (P49674 whole entry): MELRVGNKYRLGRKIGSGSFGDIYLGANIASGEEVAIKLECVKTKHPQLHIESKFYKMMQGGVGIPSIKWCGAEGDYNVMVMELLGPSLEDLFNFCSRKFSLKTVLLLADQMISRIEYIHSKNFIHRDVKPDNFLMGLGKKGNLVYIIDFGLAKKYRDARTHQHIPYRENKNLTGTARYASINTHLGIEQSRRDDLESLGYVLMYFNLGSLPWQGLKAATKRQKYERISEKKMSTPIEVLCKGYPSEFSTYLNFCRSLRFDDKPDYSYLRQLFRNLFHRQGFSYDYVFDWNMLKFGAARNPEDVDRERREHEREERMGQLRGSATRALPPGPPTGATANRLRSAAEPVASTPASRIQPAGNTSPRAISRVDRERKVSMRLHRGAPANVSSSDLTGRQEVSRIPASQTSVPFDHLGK
# testMethodNotes: ADP-Glo in vitro kinase inhibition assay, CK1ε
# Type: biochemical
# protocolConditions: 1 μM compound, 10 μM ATP; read-out: CK1 % residual activity
reportedProperty: remaining activity at 1 µM (%)
Note: unit % is implicit; provide only the numeric part.

smilesRepresentation | remaining activity at 1 µM [%]
c1c[nH]c(-c2c[nH]c3cc4cnccc4cc23)c1 | 92

Record `COC(=O)/C=C/c1c[nH]c2cc3cnccc3cc12` . Reported remaining activity at 1 µM: 90

Record `CC(C)(C)OC(=O)/C=C/c1c[nH]c2cc3cnccc3cc12` . Reported remaining activity at 1 µM: 92

###

# testedOn: CDK5/p25 (Homo sapiens)
# Construct: made in house; host or cells: bacteria
# testMethodNotes: ADP-Glo in vitro kinase inhibition assay, CDK5/p25
# Format: biochemical
# protocolConditions: 1 μM compound, 10 μM ATP; read-out: CDK5 % residual activity
reportedProperty: remaining activity at 1 µM (%)
Note: unit % is implicit; provide only the numeric part.

Some entries whose results are on file:
compound | valueObserved
CC(C)(C)OC(=O)CCc1c[nH]c2cc3cnccc3cc12 [Compound 11] | 100
CC(C)(C)OC(=O)/C=C/c1c[nH]c2cc3cnccc3cc12 [Compound 9] | 100
c1cc2cc3c(-c4cn[nH]c4)c[nH]c3cc2cn1 [Compound 16] | 91

Record c1cc2cc3c(-c4cc[nH]n4)c[nH]c3cc2cn1 [Compound 15] . Reported remaining activity at 1 µM: 98

Record Nc1ccc(-c2c[nH]c3cc4cnccc4cc23)cn1 [Compound 3] . Reported remaining activity at 1 µM: 100
